Data provenance: patent US20190127480A1

Biological target: human CD3 expressed on cells (Jurkat cells, a CD3+ human T-cell line; human PBMC T cells) (human, UniProt P07766 23-207; P04234 22-171)
Sequence (P07766 23-207 limits assumed, chain 1 of 2): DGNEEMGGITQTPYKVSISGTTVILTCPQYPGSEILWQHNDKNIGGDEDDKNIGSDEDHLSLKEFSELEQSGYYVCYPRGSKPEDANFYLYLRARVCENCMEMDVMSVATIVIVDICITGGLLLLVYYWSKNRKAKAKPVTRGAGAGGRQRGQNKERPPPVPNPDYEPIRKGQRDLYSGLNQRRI
Sequence (P04234 22-171 limits assumed, chain 2 of 2): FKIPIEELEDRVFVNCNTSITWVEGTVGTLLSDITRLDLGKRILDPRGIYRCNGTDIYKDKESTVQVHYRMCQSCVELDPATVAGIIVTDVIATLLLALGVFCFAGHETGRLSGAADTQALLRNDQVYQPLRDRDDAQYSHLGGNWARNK
Assay: cell-based or functional assay
observed property: EC50 [M] hPBMC Proliferation (M)
Reply with just the number (in M).

| binder | value unit | observed value |
| --- | --- | --- |
| H1M2692N (antibody, mouse IgG1, V domains shown, H1M: mouse IgG1 Fc, human variable regions; divalent) VH: EVQLVESGGGLVQPGGSLRLSCAASGFSFDDYTMHWVRQPPGKGLEWVSGISWNSGSIGYADSVKGRFTISRDNAKNSLYLQMNSLRAGDTALYYCAKDNSGYGYYYYYGMDVWGQGTTVTVSS VL: EIVMTQSPATLSVSPGERATLSCRASQSVSSNLAWYQQKPGQAPRLLIYGASTRATGIPARFSGSGSGTEFTLTISSLQSEDFAVYYCQQYYNWPLTFGGGTKVEIK | M | 1.42e-10 |
| H2M2774N (antibody, mouse IgG2, V domains shown, H2M: mouse IgG2 Fc, human variable regions; divalent) VH: QVQLVESGGGVVQPGRSLRLSCVASGFTFRSYGMHWVRQAPGKGLQWVAMIYYDGKNKYYADSVRGRFTISRDNSKNTLYLQMNSLRAEDTAMYFCARGPGYNWLDPWGQGTLVTVSS VL: EIVMTQSPATLSVSPGERATLSCRASQRISSNLAWYQQKPGQAPRLLIYGASTRATGSPARFSGSGSGTEFTLTISSLQSEDVAVYYCQQHNNWPLTFGGGTKVEIK | M | 4.92e-10 |
| H2M2886N (antibody, mouse IgG2, V domains shown, H2M: mouse IgG2 Fc, human variable regions; divalent) VH: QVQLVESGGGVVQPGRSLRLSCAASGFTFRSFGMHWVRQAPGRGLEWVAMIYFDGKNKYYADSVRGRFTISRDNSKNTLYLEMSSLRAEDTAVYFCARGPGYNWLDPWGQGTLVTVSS VL: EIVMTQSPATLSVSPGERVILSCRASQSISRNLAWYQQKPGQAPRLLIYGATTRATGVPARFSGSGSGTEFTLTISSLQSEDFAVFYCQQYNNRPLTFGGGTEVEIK | M | 2.69e-12 |
| H2M3540N (antibody, mouse IgG2, V domains shown, H2M: mouse IgG2 Fc, human variable regions; divalent) VH: QVHLEESGGGVVQPGRSLRLSCSASGFTFSSYAMHWVRQAPGKGLEWVAVIWYDGTNKYYLDSVKGRFTISRDNSKNTLFLQMNSLRAEDTAVYYCARDRGSIITHWGQGTLVTVSS VL: DIQMTQSPSSLSASIGDRVTITCRASQNISSYLNWYQQKPGKAPKLLIYAASSLQSGVPSRFSGSGSGTDFTLTISSLQPEDFATYYCQQTYSTPPITFGQGTRLEIK | M | 3.16e-12 |

As a next step, examine the binder that follows.
The recorded EC50 [M] hPBMC Proliferation for H2M2885N (antibody, mouse IgG2, V domains shown, H2M: mouse IgG2 Fc, human variable regions; divalent) VH: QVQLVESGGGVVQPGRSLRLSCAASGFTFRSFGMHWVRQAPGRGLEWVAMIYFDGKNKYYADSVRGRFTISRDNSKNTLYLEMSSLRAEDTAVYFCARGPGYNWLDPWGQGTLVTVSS VL: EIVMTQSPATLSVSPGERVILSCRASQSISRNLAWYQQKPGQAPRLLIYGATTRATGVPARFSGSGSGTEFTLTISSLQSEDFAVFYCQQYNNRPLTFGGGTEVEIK is 2.49e-12
